biological target: Voltage-gated potassium channel KCNQ3/KCNQ5 (Homo sapiens, UniProt O43525+Q9NR82); assay: Agonist activity at KCNQ3/KCNQ5 expressed in CHO cells increase in KCl-induced 86Rb+ efflux incubated for 10 mins prior to KCl-induction by liquid scintillation counting
Sequence (O43525 whole entry): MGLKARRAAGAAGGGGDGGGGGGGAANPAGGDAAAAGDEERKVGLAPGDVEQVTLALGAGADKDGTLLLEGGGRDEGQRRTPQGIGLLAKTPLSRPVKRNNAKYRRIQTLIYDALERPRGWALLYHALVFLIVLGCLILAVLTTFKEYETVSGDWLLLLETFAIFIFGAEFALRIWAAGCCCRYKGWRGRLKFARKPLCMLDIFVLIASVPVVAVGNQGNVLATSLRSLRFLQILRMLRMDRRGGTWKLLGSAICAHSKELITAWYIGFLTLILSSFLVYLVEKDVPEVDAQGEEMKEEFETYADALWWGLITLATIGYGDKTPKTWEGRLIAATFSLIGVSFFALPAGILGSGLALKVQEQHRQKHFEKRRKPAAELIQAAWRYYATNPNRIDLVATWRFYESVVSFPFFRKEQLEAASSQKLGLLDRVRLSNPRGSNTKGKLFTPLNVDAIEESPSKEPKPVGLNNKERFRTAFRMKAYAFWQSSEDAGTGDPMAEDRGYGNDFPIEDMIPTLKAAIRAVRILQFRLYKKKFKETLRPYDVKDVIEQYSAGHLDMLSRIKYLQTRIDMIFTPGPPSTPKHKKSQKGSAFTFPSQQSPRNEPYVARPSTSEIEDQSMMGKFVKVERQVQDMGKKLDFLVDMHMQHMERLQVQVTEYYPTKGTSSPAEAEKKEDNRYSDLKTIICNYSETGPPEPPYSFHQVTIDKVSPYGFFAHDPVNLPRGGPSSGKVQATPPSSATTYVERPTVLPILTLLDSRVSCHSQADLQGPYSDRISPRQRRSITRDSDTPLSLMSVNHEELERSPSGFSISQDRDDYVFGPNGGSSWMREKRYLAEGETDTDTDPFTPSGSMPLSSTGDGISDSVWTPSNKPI
Sequence (Q9NR82 whole entry): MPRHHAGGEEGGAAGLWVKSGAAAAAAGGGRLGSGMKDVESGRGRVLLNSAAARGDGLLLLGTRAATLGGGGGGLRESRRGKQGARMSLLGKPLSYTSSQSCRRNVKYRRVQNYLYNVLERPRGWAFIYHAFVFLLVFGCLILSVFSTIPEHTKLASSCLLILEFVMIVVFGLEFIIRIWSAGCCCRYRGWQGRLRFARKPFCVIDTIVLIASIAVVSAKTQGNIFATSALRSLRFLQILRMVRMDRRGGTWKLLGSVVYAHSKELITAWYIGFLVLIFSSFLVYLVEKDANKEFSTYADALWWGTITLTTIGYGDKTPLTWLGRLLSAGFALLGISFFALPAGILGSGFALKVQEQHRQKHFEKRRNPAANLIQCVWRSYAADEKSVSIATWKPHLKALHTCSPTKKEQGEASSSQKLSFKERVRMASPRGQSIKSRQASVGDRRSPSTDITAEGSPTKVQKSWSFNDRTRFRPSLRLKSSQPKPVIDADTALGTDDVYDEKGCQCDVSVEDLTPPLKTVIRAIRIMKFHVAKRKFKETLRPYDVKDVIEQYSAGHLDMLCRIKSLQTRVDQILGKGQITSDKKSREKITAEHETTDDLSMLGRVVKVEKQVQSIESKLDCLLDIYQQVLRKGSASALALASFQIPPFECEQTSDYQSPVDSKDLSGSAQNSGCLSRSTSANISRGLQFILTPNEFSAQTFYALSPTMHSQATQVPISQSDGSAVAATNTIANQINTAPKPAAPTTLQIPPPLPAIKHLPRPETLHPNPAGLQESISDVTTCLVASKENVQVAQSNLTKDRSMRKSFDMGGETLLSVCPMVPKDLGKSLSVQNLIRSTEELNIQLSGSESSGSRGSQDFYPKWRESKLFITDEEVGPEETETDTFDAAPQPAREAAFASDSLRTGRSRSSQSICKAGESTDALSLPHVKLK
For each record, check the reported EC50: if it is below 10 µM write true, else write false.

>  <testSmiles>
O=C(Nc1cnc(Cl)nc1)c1cccc(C(F)(F)F)c1

>  <category>
false

$$$$
>  <testSmiles>
O=C(Nc1cnc(Cl)nc1)c1cccc(F)c1

>  <category>
false

$$$$
>  <testSmiles>
O=C(Nc1cnc(Cl)nc1)c1ccc(F)c(F)c1

>  <category>
false

$$$$
>  <testSmiles>
O=C(Nc1cnc(Cl)nc1)c1ccc(Cl)c(F)c1

>  <category>
true

$$$$
>  <testSmiles>
O=C(Nc1cnc(Cl)nc1)c1cccc(Cl)c1

>  <category>
false

$$$$

====

assay: Half life in Sprague-Dawley rat at 2mg/kg, iv; assay type: ADME, organism-based; conditions: in vivo

>  <testSmiles>
O=C(Nc1cnc(Cl)nc1)c1ccc(F)c(F)c1

>  <half-life (h)>
1.2

$$$$

====

experiment: Clearance in Sprague-Dawley rat at 2mg/kg, iv; format: ADME, organism-based; settings: in vivo
valueKind: clearance

>  <testSmiles>
O=C(Nc1cnc(Cl)nc1)c1ccc(F)c(F)c1

>  <valueReported>
17.3 mL/min/kg

$$$$

====

molecular target: Voltage-gated inwardly rectifying potassium channel KCNH2 (Homo sapiens, UniProt Q12809)
Sequence (Q12809 whole entry): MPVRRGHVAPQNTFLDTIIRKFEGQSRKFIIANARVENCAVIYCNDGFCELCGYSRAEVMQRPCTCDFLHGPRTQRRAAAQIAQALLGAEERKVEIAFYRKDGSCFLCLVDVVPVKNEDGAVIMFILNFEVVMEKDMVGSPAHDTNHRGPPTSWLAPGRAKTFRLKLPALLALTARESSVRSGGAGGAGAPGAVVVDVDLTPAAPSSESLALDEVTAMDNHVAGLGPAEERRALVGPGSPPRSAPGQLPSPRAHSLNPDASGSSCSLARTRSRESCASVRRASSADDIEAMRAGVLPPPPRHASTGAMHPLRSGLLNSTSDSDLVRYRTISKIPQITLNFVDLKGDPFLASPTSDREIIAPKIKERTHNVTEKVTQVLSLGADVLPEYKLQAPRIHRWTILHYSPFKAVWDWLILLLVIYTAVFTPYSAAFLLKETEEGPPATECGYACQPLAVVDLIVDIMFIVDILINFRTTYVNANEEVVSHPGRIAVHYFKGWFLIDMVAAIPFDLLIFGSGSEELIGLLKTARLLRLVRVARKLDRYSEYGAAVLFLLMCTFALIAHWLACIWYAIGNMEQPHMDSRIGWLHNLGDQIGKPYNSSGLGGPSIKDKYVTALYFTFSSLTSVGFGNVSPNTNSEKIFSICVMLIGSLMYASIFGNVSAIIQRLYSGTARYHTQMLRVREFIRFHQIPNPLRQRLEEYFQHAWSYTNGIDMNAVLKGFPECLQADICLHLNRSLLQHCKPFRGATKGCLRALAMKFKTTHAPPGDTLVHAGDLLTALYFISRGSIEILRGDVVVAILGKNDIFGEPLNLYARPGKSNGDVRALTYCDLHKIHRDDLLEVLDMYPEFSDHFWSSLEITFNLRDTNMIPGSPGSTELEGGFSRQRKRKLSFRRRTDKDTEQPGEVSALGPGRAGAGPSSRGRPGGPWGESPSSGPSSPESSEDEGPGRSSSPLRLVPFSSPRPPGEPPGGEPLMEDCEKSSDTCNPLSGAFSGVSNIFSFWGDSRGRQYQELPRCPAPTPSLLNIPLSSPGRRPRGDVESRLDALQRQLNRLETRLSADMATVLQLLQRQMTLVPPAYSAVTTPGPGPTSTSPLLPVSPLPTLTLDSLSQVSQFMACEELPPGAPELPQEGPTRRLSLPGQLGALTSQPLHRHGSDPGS
pIC50: −log10 of the molar value.

>  <testSmiles>
O=C(Nc1cnc(Cl)nc1)c1ccc(F)c(F)c1

>  <pIC50>
< 4.52

$$$$

====

biological target: Voltage-gated potassium channel, IKs; KCNQ1(Kv7.1)/KCNE1(MinK) (Homo sapiens, UniProt P15382+P51787); test: Antagonist activity at KCNQ1/MINK expressed in CHO cells assessed as inhibition of KCl-induced 86Rb+ efflux incubated for 10 mins prior to KCl-induction by liquid scintillation counting
log10 of IC50 overview
valueKind: log10 of IC50 (log10 of the value in µM)

>  <testSmiles>
Cc1ccc(C(=O)Nc2ccc(Cl)nc2)cc1F

>  <log10 of IC50>
1.52

$$$$
>  <testSmiles>
O=C(Nc1cnc(Cl)nc1)c1cccc(C(F)(F)F)c1

>  <log10 of IC50>
1.54

$$$$
>  <testSmiles>
N#Cc1ccc(C(=O)Nc2ccc(Cl)nc2)cc1F

>  <log10 of IC50>
1.71

$$$$
>  <testSmiles>
O=C(Nc1ccc(Cl)nc1)c1ccc(F)c(F)c1

>  <log10 of IC50>
1.61

$$$$
>  <testSmiles>
O=C(Nc1ccc(Cl)nc1)c1ccc(Oc2ccccc2)cc1

>  <log10 of IC50>
0.28

$$$$
>  <testSmiles>
O=C(Nc1ccc(Cl)nc1)c1ccc(Oc2ccccc2)c(F)c1

>  <log10 of IC50>
0.11

$$$$

====

assay: Oral bioavailability in Sprague-Dawley rat at 2 mg/kg; type: ADME, organism-based; details: in vivo
valueKind: bioavailability

>  <testSmiles>
O=C(Nc1cnc(Cl)nc1)c1ccc(F)c(F)c1

>  <valueReported>
63%

$$$$

====

molecular target: Voltage-gated potassium channel, KQT; KCNQ2(Kv7.2)/KCNQ3(Kv7.3) (Homo sapiens, UniProt O43525+O43526); test: Agonist activity at KCNQ2/KCNQ3 expressed in CHO cells assessed as increase in KCl-induced 86Rb+ efflux incubated for 10 mins prior to KCl-induction by liquid scintillation counting
Sequence (O43526 whole entry): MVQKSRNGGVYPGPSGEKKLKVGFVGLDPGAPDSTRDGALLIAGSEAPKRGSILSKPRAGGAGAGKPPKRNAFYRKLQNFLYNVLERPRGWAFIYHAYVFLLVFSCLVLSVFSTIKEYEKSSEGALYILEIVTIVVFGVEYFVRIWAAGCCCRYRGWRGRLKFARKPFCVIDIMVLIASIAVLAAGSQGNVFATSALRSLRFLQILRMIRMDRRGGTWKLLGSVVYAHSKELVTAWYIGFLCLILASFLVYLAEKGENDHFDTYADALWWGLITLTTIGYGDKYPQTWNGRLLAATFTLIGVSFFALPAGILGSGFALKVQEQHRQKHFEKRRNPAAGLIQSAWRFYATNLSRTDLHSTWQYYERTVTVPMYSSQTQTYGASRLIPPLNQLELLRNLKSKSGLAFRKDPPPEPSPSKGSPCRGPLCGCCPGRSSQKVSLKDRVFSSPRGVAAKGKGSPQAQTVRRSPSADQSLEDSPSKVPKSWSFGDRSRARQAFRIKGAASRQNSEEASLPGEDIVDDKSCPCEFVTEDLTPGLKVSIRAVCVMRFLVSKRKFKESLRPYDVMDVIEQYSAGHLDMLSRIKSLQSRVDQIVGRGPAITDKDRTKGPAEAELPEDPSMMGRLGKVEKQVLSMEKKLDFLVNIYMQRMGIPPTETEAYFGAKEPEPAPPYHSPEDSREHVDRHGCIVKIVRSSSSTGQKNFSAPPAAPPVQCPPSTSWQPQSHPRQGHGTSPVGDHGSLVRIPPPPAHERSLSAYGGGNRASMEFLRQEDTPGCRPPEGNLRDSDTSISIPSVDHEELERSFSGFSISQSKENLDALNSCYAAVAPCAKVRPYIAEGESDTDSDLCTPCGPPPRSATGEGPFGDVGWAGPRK
Sequence (O43525 whole entry): as the sequence (O43525 whole entry) above
pEC50: −log10 of the molar value.
pEC50 overview

>  <testSmiles>
O=C(Nc1ccc(C(F)(F)F)nc1)c1ccc(F)c(F)c1

>  <measurementQualifier>
<

>  <pEC50>
5.00

$$$$
>  <testSmiles>
O=C(Nc1ccc(O)nc1)c1ccc(F)c(F)c1

>  <measurementQualifier>
<

>  <pEC50>
5.00

$$$$
>  <testSmiles>
O=C(Nc1ccc(Cl)nc1)c1ccc(Cl)c(Cl)c1

>  <measurementQualifier>
=

>  <pEC50>
6.17

$$$$
>  <testSmiles>
Cc1ccc(C(=O)Nc2ccc(Cl)nc2)cc1F

>  <measurementQualifier>
=

>  <pEC50>
6.55

$$$$
>  <testSmiles>
COc1ccc(NC(=O)c2ccc(F)c(F)c2)cn1

>  <measurementQualifier>
<

>  <pEC50>
5.00

$$$$
>  <testSmiles>
CSc1ccc(NC(=O)c2ccc(F)c(F)c2)cn1

>  <measurementQualifier>
<

>  <pEC50>
5.00

$$$$
>  <testSmiles>
O=C(Nc1ccc(Cl)nc1)c1cccc(Cl)c1

>  <measurementQualifier>
=

>  <pEC50>
6.57

$$$$

====

biological target: Voltage-gated potassium channel, KQT; KCNQ2(Kv7.2)/KCNQ3(Kv7.3) (Homo sapiens, UniProt O43525+O43526); assay: Agonist activity at KCNQ2/KCNQ3 expressed in CHO cells assessed as increase in KCl-induced 86Rb+ efflux incubated for 10 mins prior to KCl-induction by liquid scintillation counting
valueKind: log10(EC50) (log10 of the value in nM)

>  <testSmiles>
O=C(Nc1ccc(F)nc1)c1ccc(F)c(F)c1

>  <log10(EC50)>
3.68

$$$$
>  <testSmiles>
O=C(Nc1ccc(Cl)nc1)c1ccccc1

>  <log10(EC50)>
3.20

$$$$
>  <testSmiles>
O=C(Nc1cnc(Cl)nc1)c1cccc(Cl)c1

>  <log10(EC50)>
3.04

$$$$
>  <testSmiles>
Cc1ccc(C(=O)Nc2cnc(Cl)nc2)cc1F

>  <log10(EC50)>
2.78

$$$$
>  <testSmiles>
O=C(Nc1cnc(Cl)nc1)c1ccc(Cl)c(F)c1

>  <log10(EC50)>
2.61

$$$$
>  <testSmiles>
O=C(Nc1ccc(Cl)nc1)c1ccc(Cl)c(F)c1

>  <log10(EC50)>
1.90

$$$$
>  <testSmiles>
O=C(Nc1cnc(Cl)nc1)c1cccc(C(F)(F)F)c1

>  <log10(EC50)>
3.63

$$$$
>  <testSmiles>
CC(C)Sc1ccc(C(=O)Nc2ccc(Cl)nc2)cc1F

>  <log10(EC50)>
2.04

$$$$
>  <testSmiles>
Cc1ccc(NC(=O)c2ccc(F)c(F)c2)cn1

>  <log10(EC50)>
3.83

$$$$
>  <testSmiles>
O=C(Nc1ccc(Cl)nc1)c1ccc(F)cc1

>  <log10(EC50)>
2.99

$$$$
>  <testSmiles>
O=C(Nc1ccc(Cl)nc1)c1ccc(S(=O)(=O)c2ccc(F)cc2)c(F)c1

>  <log10(EC50)>
1.85

$$$$
>  <testSmiles>
O=C(Nc1ccc(Cl)nc1)c1ccc(F)c(Cl)c1

>  <log10(EC50)>
2.28

$$$$
>  <testSmiles>
O=C(Nc1ccc(Cl)nc1)c1ccc(Sc2ccc(F)cc2)c(F)c1

>  <log10(EC50)>
1.90

$$$$
>  <testSmiles>
COc1cccc(C(=O)Nc2ccc(Cl)nc2)c1

>  <log10(EC50)>
3.74

$$$$
>  <testSmiles>
O=C(Nc1cnc(Cl)nc1)c1ccc(F)c(F)c1

>  <log10(EC50)>
2.84

$$$$
>  <testSmiles>
O=C(Nc1ccc(Cl)nc1)c1ccc(C(F)(F)F)c(F)c1

>  <log10(EC50)>
2.57

$$$$
>  <testSmiles>
O=C(Nc1ccc(Cl)nc1)c1ccc(Oc2ccccc2)cc1

>  <log10(EC50)>
1.00

$$$$
>  <testSmiles>
CCOc1ccc(C(=O)Nc2ccc(Cl)nc2)cc1F

>  <log10(EC50)>
2.76

$$$$
>  <testSmiles>
O=C(Nc1ccc(NC2CC2)nc1)c1ccc(F)c(F)c1

>  <log10(EC50)>
3.43

$$$$
>  <testSmiles>
O=C(Nc1ccc(Cl)nc1)c1ccc(NCCc2ccccc2)c(F)c1

>  <log10(EC50)>
2.26

$$$$
>  <testSmiles>
CC(C)CS(=O)(=O)c1ccc(C(=O)Nc2ccc(Cl)nc2)cc1F

>  <log10(EC50)>
2.41

$$$$
>  <testSmiles>
O=C(Nc1ccc(Cl)nc1)c1ccc(F)c(C(F)(F)F)c1

>  <log10(EC50)>
2.62

$$$$
>  <testSmiles>
O=C(Nc1cnc(Cl)nc1)c1cccc(F)c1

>  <log10(EC50)>
3.86

$$$$
>  <testSmiles>
O=C(Nc1ccc(Cl)nc1)c1ccc(Oc2ccccc2)c(F)c1

>  <log10(EC50)>
1.48

$$$$
>  <testSmiles>
O=C(Nc1ccc(N2CCCC2)nc1)c1ccc(F)c(F)c1

>  <log10(EC50)>
2.68

$$$$

====

pIC50 overview
biological target: Voltage-gated potassium channel, IKs; KCNQ1(Kv7.1)/KCNE1(MinK) (Homo sapiens, UniProt P15382+P51787); assay: Antagonist activity at KCNQ1/MINK expressed in CHO cells assessed as inhibition of KCl-induced 86Rb+ efflux incubated for 10 mins prior to KCl-induction by liquid scintillation counting
pIC50: −log10 of the molar value.

>  <testSmiles>
O=C(Nc1ccc(Cl)nc1)c1ccc(NCCc2ccccc2)c(F)c1

>  <pIC50>
< 4.00

$$$$
>  <testSmiles>
CC(C)CSc1ccc(C(=O)Nc2ccc(Cl)nc2)cc1F

>  <pIC50>
< 4.00

$$$$
>  <testSmiles>
O=C(Nc1ccc(Cl)nc1)c1ccc(SCc2ccc(F)cc2)c(F)c1

>  <pIC50>
< 4.00

$$$$
>  <testSmiles>
O=C(Nc1ccc(Cl)nc1)c1ccc(-c2ccccc2)cc1

>  <pIC50>
< 4.52

$$$$
>  <testSmiles>
Cc1ccc(C(=O)Nc2ccc(Cl)nc2)cc1C

>  <pIC50>
< 4.00

$$$$
>  <testSmiles>
CC(C)Oc1ccc(C(=O)Nc2ccc(Cl)nc2)cc1F

>  <pIC50>
< 4.00

$$$$
